Assayed system: GST-Nv-NF-kB (Cys allele) (Nematostella vectensis, UniProt E5G601 2-411)
Sequence: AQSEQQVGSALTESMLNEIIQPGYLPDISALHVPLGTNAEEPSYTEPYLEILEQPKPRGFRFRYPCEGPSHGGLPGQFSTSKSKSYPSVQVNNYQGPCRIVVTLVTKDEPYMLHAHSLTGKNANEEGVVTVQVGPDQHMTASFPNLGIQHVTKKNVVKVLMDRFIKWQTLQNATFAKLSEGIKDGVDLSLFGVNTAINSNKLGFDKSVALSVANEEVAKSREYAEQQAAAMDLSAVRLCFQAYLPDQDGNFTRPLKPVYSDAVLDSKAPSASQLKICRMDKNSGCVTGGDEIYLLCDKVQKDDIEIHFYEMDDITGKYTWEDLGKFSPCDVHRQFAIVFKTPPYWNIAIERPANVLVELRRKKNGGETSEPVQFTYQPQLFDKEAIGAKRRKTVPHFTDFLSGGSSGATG
Assay comment: protein-binding microarray (PBM); PBM: ~300 nM protein, 6 mM HEPES pH 7.8, 80 mM KCl, 0.5 mM EDTA, 0.5 mM EGTA, 6% glycerol, 35 ng/ul poly-dIdC, 1% milk, 1 h, room temperature; Ap Aiptasia and Nv Nematostella (sea anemones) / Co Capsaspora / Aq Amphimedon (sponge) / Dm Drosophila / Hu human; RHD is the Rel homology domain; high values mean tight binding
Settings: dsDNA, one strand shown
Readout kind: binding signal (z-score)

- CCGATTAACATCAGATAATTCCCTGATGTTAATCGGGTCTTGATTCGCTTGACGCTGCTG: 7.58
- CCGATTAACATCAGGGATTTTCATGATGTTAATCGGGTCTTGATTCGCTTGACGCTGCTG: 4.83
- CCGATTAACATCAGACAATTCCCTGATGTTAATCGGGTCTTGATTCGCTTGACGCTGCTG: 5
- CCGATTAACATCAAGGGGAAAATTGATGTTAATCGGGTCTTGATTCGCTTGACGCTGCTG: 8.8
- CCGATTAACATCAAAAATTACCCTGATGTTAATCGGGTCTTGATTCGCTTGACGCTGCTG: 7.43
- CCGATTAACATCAAGTTCCCCCATGATGTTAATCGGGTCTTGATTCGCTTGACGCTGCTG: 6.4
- CCGATTAACATCAGGGAAAGAAATGATGTTAATCGGGTCTTGATTCGCTTGACGCTGCTG: 3.74
- CCGATTAACATCAATTCCCAACCTGATGTTAATCGGGTCTTGATTCGCTTGACGCTGCTG: 2.15
